Test: Pharmacokinetics of nerinetide in rats with simultaneous alteplase
Format: in vivo
Conditions: plasma, intravenous, 7.6 mg/kg; rat, human equivalent concentrations (FIG. 6D)
No end group written: not given here.
Assay Endpoint: half-life

Entry under test: YGRKKRRQRRRKLSSIESDV [nerinetide] . Its half-life was 5 to 10 min
